B1: library; a variant is named by its letters at N, in order (parent)
chain: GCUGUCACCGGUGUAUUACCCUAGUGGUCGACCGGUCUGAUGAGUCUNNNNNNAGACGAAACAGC

- Variants of: B1
- ASSAY: normalized RNA/DNA level without ligand (relative to sTRSVctl = 100) (log10 (% of sTRSVctl)); ligand: hypoxanthine (xanthine aptamer); higher = less ribozyme self-cleavage, higher mRNA level
- ASSAY_SETUP: HEK293T, reporter: mCherry (pCS4076), ligand present: no
MEASUREMENT_TYPE: normalized RNA/DNA level without ligand (log10)

| MUTATION_CODE | NUMERIC_VALUE |
| --- | --- |
| AGAGGU | 1.52 |
| GACGCC | 1.79 |
| AUCAAC | 1.84 |
| AAACGG | 1.23 |
| AGCAAU | 1.83 |
| ACAAGG | 1.26 |
| GGUCUA | 1.9 |
| UCAUCA | 1.98 |
| AGGGGU | 1.61 |
| UGAGCU | 1.9 |
| UCUGGU | 1.69 |
| GUCAGG | 1.46 |
| UUCUGG | 1.8 |
| CCUAUA | 1.83 |
| UGGCUU | 1.94 |
| UUCAAC | 1.87 |
| UCCCGA | 1.8 |
| AUUCGU | 1.9 |
| GAAAGA | 1.71 |
| GGAAUC | 1.81 |
| GACGCA | 1.82 |
| UACUAU | 1.83 |
| UUCCCU | 1.94 |
| AGGGGA | 1.61 |
| CUAGGA | 1.86 |
| CCGGGA | 1.82 |
| CUGAGC | 1.79 |
| UUCCUC | 2.04 |
| UUGAAA | 1.77 |
| AAUCUC | 2.02 |
| CAACGU | 1.89 |
| CUUGGA | 1.85 |
| UCGCCG | 1.84 |
| ACCGUA | 1.82 |
| CGGAGG | 1.28 |
| GAAUCC | 1.9 |
| CCGUGA | 1.56 |
| CAAUAG | 1.69 |
| CUCUAU | 1.85 |
| CGAUUC | 1.89 |
| UGACCA | 1.89 |
| UAAAGA | 1.57 |
| UCUUCU | 1.94 |
| GCUUUC | 1.83 |
| GCUUUA | 1.93 |
| UCUGGG | 1.8 |
| CCAAAU | 1.83 |
| UCUGUU | 1.88 |
| CAUUUG | 1.9 |
| UGUACA | 1.85 |
| GUCCGG | 1.64 |
| UCAAUC | 2 |
| GCGUCA | 1.68 |
| UCUUAA | 1.83 |
| UGUGUG | 1.68 |
| CGUUGC | 1.91 |
| UCUAUA | 1.86 |
| GGUUUG | 1.61 |
| CGGCGG | 1.48 |
| ACGUGA | 1.17 |
| GGUGGG | 1.47 |
| CCCCGG | 1.97 |
| UUGAUA | 1.81 |
| UCGACU | 1.72 |
| UCAGUC | 1.97 |
| GCCGUU | 1.92 |
| CGGUAU | 1.41 |
| CAGCUG | 1.89 |
| CAGGAU | 1.68 |
| GUAGCA | 1.8 |
| GGCCCC | 1.97 |
| AGUAGU | 1.45 |
| GCGGUG | 1.41 |
| UUCGUC | 2.03 |
| UUAUCA | 1.83 |
| UGGUGA | 1.52 |
| CCGGGG | 1.34 |
| CAGGUC | 1.87 |
| CUGGAC | 1.87 |
| UUUGCU | 1.95 |
| AGAACC | 1.87 |
| GAUGCG | 1.5 |
| AGCGCC | 1.86 |
| GACGAG | 1.31 |
| UUAUUC | 1.94 |
| AUUCAA | 1.82 |
| AUGUGC | 1.67 |
| GCAUGA | 1.71 |
| GUCUAU | 1.82 |
| AUCCAA | 1.79 |
| UGCGAU | 1.79 |
